Test: Selectivity index, ratio of IC50 for human U2OS cells to IC50 for intracellular Trypanosoma cruzi infected in human U2OS cells
Assay type: toxicity, cell-based
Settings: U2OS cells, read-out: Selectivity Index
Category | rule: reported selectivity ratio within range, see low bracket (below 3), middle bracket (3 to below 10), high bracket (10 or more)

Task item: Form field 'band' for `Cc1ccc(Nc2nc(-c3ccccn3)nc3ccccc23)nc1`
Reply: low bracket

Task item: Form field 'band' for N#CC1CCN(c2nc(-c3ccccn3)nc3ccccc23)C1 (configuration not stated)
Reply: middle bracket

Task item: Form field 'band' for `c1ccc(-c2nc(N3CCc4nc[nH]c4C3)c3ccccc3n2)nc1`
Reply: low bracket

Task item: Form field 'band' for `N#CC1CCN(c2nc(-c3ccccn3)nc3ccccc23)CC1`
Reply: low bracket

Task item: Form field 'band' for `c1ccc(CCNc2nc(-c3ccccn3)nc3ccccc23)nc1`
Reply: high bracket

Task item: Form field 'band' for Fc1ccc(C2CCN(c3nc(-c4ccccn4)nc4ccccc34)C2)cc1 (configuration not stated)
Reply: middle bracket

Task item: Form field 'band' for c1ccc(OC2CCN(c3nc(-c4ccccn4)nc4ccccc34)C2)cc1 (configuration not stated)
Reply: middle bracket

Task item: Form field 'band' for Cn1ccc2nc(-c3ccccn3)nc(N3CCC(c4ccccn4)C3)c21 (configuration not stated)
Reply: high bracket

Task item: Form field 'band' for c1ccc(C2CCN(c3nc(-c4ccccn4)nc4ccccc34)C2)cc1 (configuration not stated)
Reply: middle bracket

Task item: Form field 'band' for `c1ccc(-c2nc(Nc3ccn4nccc4c3)c3ccccc3n2)nc1`
Reply: low bracket

Task item: Form field 'band' for CCn1ncc2nc(-c3ccccn3)nc(N3CCC(c4ccccn4)C3)c21 (configuration not stated)
Reply: low bracket

Task item: Form field 'band' for `OC1(c2ccccc2)CCN(c2nc(-c3ccccn3)nc3ccccc23)CC1`
Reply: high bracket

Task item: Form field 'band' for `Cc1ccc(Nc2nc(-c3ccccn3)nc3ccccc23)cn1`
Reply: low bracket

Task item: Form field 'band' for `c1ccc(-c2nc(NCc3nc4ccccc4o3)c3ccccc3n2)nc1`
Reply: high bracket

Task item: Form field 'band' for CC(Nc1nc(-c2ccccn2)nc2ccccc12)c1ccccn1 (configuration not stated)
Reply: high bracket

Task item: Form field 'band' for CCn1cnc2c(N3CCC(c4ccccn4)C3)nc(-c3ccccn3)nc21 (configuration not stated)
Reply: low bracket

Task item: Form field 'band' for `c1ccc(CNc2nc(-c3ccccn3)nc3ccccc23)cc1`
Reply: high bracket
